- Assay Target: MAPK14 (human)
- Test Summary: Inhibition of MAPK14 Kinase Activity by PHAS-I Assay
- Condition Info: concentration not given here
Measure Name: inhibition (%)
Respond with the bare value in %.

O=C(NCCc1[nH]nc(-c2ccc(F)cc2)c1-c1ccncc1)Nc1ccccc1-c1ccccc1 = 63
Cc1c(-c2ccncc2)c(-c2ccc(F)cc2)nn1CC(=O)Nc1ccccc1C(C)(C)C = 84

Now look at this one.
Ask: Please state recorded inhibition (tested on MAPK14 (human)) of COc1ccc(C2OCCN2C(=O)Cn2nc(-c3ccc(F)cc3)c(-c3ccncc3)c2C)cc1OC (centres undefined)
Reply: 69

====

# key: entry, value: pIC50
- Assay Target: MAPK14 (human)
- Test Summary: Inhibition of LPS Stimulated TNF Production by U937 Cells
Expect pIC50 as a plain number equal to -log10 of the molar concentration.

Cn1cc(-c2ccnc(CCc3ccc(F)cc3)c2)c(-c2ccc(F)cc2)n1 = 6.49
Cc1[nH]nc(-c2ccc3c(c2)CCCO3)c1-c1ccncc1 = 6.68
COc1ccccc1NC(=O)NCCc1[nH]nc(-c2ccc(F)cc2)c1-c1ccncc1 = 6.28
C[C@@H](NC(=O)c1ccccc1C(F)(F)F)c1[nH]nc(-c2ccc(F)cc2)c1-c1ccncc1 = 6.19

Ask: Please state recorded pIC50 (tested on MAPK14 (human)) of C#CCNc1n[nH]c(-c2ccc(F)cc2)c1-c1ccncc1
Reply: 6.52

Ask: Please state recorded pIC50 (tested on MAPK14 (human)) of O=S(=O)(NCc1[nH]nc(-c2ccc(F)cc2)c1-c1ccncc1)c1cc(Cl)c(Cl)s1
Reply: 5.74

Ask: Please state recorded pIC50 (tested on MAPK14 (human)) of Cc1n[nH]c(-c2ccc(C(F)(F)F)cc2)c1-c1ccncc1
Reply: 6.28

Ask: Please state recorded pIC50 (tested on MAPK14 (human)) of Cn1cc(-c2ccncc2)c(-c2ccc(C(F)(F)F)cc2)n1
Reply: 5.92

====

# key: entry, value: inhibition
- Assay Target: UniProtKB Q16539
- Sequence (Q16539 whole entry, looked up): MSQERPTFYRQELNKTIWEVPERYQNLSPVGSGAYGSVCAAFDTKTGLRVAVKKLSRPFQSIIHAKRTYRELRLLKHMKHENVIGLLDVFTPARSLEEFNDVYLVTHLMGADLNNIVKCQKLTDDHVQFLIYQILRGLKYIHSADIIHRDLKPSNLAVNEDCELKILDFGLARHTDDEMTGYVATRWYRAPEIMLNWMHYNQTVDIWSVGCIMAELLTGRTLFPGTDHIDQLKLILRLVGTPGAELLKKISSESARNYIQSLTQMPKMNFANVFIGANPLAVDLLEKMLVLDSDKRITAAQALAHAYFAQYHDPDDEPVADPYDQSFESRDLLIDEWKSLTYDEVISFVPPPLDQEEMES
- Test Summary: Inhibition of MAPK14 Kinase Activity by PHAS-I Assay
- Condition Info: concentration not given here
Respond with the bare value in %.

Study these solved cases before continuing.
Cc1c(-c2ccncc2)c(-c2ccc(F)cc2)nn1CC(=O)NC1Cc2ccccc2C1 = 69
O=S(=O)(NCCc1[nH]nc(-c2ccc(F)cc2)c1-c1ccncc1)c1ccc(F)cc1 = 85
CC(C)C(=O)NCCCc1[nH]nc(-c2ccc(F)cc2)c1-c1ccncc1 = 79
Cc1c(-c2ccncc2)c(-c2ccc(F)cc2)nn1CC(=O)NC1CCCCC1C1CCCCC1 (centres undefined) = 45
Cc1c(-c2ccncc2)c(-c2ccc(F)cc2)nn1CC(=O)NC1CCN(Cc2ccccc2)CC1 = 70

Ask: Form field: reported inhibition of COc1ccc(OC)c(NC(=O)Cn2nc(-c3ccc(F)cc3)c(-c3ccncc3)c2C)c1
Reply: 85

Ask: Form field: reported inhibition of Cc1c(-c2ccncc2)c(-c2ccc(F)cc2)nn1CC(=O)N[C@@H](C)C1CCCCC1
Reply: 64

Ask: Form field: reported inhibition of Cc1c(-c2ccncc2)c(-c2ccc(F)cc2)nn1CC(=O)N(C)CCc1ccncc1
Reply: 38

Ask: Form field: reported inhibition of O=S(=O)(NCCc1[nH]nc(-c2ccc(F)cc2)c1-c1ccncc1)c1cccs1
Reply: 87

Ask: Form field: reported inhibition of CCN(Cc1ccncc1)C(=O)Cn1nc(-c2ccc(F)cc2)c(-c2ccncc2)c1C
Reply: 68

Ask: Form field: reported inhibition of Cc1c(-c2ccncc2)c(-c2ccc(F)cc2)nn1CC(=O)Nc1cccc(Br)c1
Reply: 88

Ask: Form field: reported inhibition of CCOC(=O)CNC(=O)NCc1[nH]nc(-c2ccc(F)cc2)c1-c1ccncc1
Reply: 70

Ask: Form field: reported inhibition of COC(=O)[C@H](CSCc1ccccc1)NC(=O)Cn1nc(-c2ccc(F)cc2)c(-c2ccncc2)c1C
Reply: 84

Ask: Form field: reported inhibition of O=C(Cc1cccs1)NCCc1[nH]nc(-c2ccc(F)cc2)c1-c1ccncc1
Reply: 68

Ask: Form field: reported inhibition of CCOC(=O)CCOC(=O)NCc1[nH]nc(-c2ccc(F)cc2)c1-c1ccncc1
Reply: 54

Source listed as the Kinase Knowledgebase extract (Sharma et al. 2016).
